Assay read-out pIC50 on Type-1 angiotensin II receptor B (Rattus norvegicus, UniProt P29089); records merged from the literature.
- Target or test system: Type-1 angiotensin II receptor B (Rattus norvegicus, UniProt P29089)
- Sequence (P29089 whole entry): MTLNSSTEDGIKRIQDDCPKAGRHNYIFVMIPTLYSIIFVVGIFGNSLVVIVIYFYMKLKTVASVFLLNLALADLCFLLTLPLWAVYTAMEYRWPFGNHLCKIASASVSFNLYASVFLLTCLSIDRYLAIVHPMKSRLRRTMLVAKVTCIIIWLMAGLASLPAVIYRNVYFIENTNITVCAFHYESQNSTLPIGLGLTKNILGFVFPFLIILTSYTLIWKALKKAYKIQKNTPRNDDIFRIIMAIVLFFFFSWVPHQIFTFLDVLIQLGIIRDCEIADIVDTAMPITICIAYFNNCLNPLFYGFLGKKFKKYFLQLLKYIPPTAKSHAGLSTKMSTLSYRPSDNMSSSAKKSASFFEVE
pIC50: −log10 of the molar value.
Class assignment keyed on pIC50, ranges b0: < 7; b1: ≥ 7 and < 8; b2: ≥ 8

Example entries and their recorded answers appear below.
Compound	Assigned class
CCCCc1nc(Cl)c(CC(=O)OC)n1Cc1ccc(NC(=O)[C@H](Cc2ccccc2)n2cccc2C(=O)OC)cc1	b0
CCCCC1=NC(=O)C2(CCCC2)CN1Cc1ccc(-c2ccccc2C(=O)O)cc1	b0

Please report the category associated with `CCCCC1=NC2(CCCC2)C(C)(C)C(=O)N1Cc1ccc(-c2ccccc2-c2nnn[nH]2)cc1` , nothing else.
b2

Please report the category associated with CCCCC1=NC(C)(C2CCCC2)C(=O)N1Cc1ccc(-c2ccccc2C(=O)O)cc1 (centres undefined) , nothing else.
b2

Please report the category associated with `CCc1nc2c(C)cc(C)nc2n1Cc1ccc(-c2c(C(=O)O)c3nnnn3c3ccccc23)cc1` , nothing else.
b1

Please report the category associated with `CCCCc1nc(Cl)c(C(=O)O)n1Cc1ccc(C2=C(c3nn[nH]n3)CCCCC2)cc1` , nothing else.
b0

Please report the category associated with `CCc1nc2c(C)cc(C)nc2n1Cc1ccc(NC(=O)[C@H](Cc2ccccc2)n2cccc2C(=O)OC)cc1` , nothing else.
b0

Please report the category associated with `CCCCc1nc(Cl)c(CO)n1Cc1ccc(NC(=O)[C@H](Cc2ccccc2)n2cccc2C(=O)OC)cc1` , nothing else.
b0

Please report the category associated with `CCCc1cc(=O)n(CC(=O)N(C)C)c(=O)n1Cc1ccc(-c2ccccc2-c2nn[nH]n2)cc1` , nothing else.
b2

Please report the category associated with `CCCCc1nc2c(C)cc(C)nc2n1Cc1ccc(-c2c(C(=O)O)cnc3ccccc23)cc1` , nothing else.
b1

Please report the category associated with `CCCCC1=NC2(CCCC2)CC(=O)N1Cc1ccc(-c2ccccc2-c2nn[nH]n2)cc1` , nothing else.
b2

Please report the category associated with `CCCCC1=NC2(CCCC2)CC(=O)N1Cc1ccc(-c2ccccc2C(=O)O)cc1` , nothing else.
b1

Please report the category associated with `CCCCc1cc(=O)n(C)c(=O)n1Cc1ccc(-c2ccccc2-c2nn[nH]n2)cc1` , nothing else.
b2

Please report the category associated with `CCCCc1nc(Cl)c(CO)n1Cc1ccc(NC(=O)[C@H](CCCC)n2cccc2C(=O)OC)cc1` , nothing else.
b0

Please report the category associated with CCCCc1nc(Cl)c(CO)n1Cc1ccc(NC(=O)C(C#N)Cc2ccccc2)cc1 (centres undefined) , nothing else.
b0

Please report the category associated with `CCCCc1nc(Cl)c(CC(=O)O)n1Cc1ccc(NC(=O)[C@H](Cc2ccccc2)n2ccc(C(=O)OCC)c2)cc1` , nothing else.
b0
